PROTOCOL TEXT: chemical genetic growth profiling, strain panel (AID 1159580);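 further: tested at 20 µM; growth read once vehicle control cultures reached saturation at 30 °C; 1 = growth at the plate median or of vehicle wells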
TEST PARAMETERS: S. cerevisiae deletion strains, growth OD, locus YOR329C, strain SCD5, stronger effect = lower value
Screen size: about 5,500 compounds; about 2,000 (36%) were called active. Roughly 18% stayed inconclusive and do not appear here. The list shows a part of the results.
Measured normalized growth, listed per entry.
Would you mind answering with just the numeric figure?

O=C(NCc1ccco1)c1csc(C2COc3ccccc3O2)n1 (stereo not drawn)
0.909
CN(C)/C=C/C(=O)c1ccc(C#Cc2ccccc2)cc1
0.98
O=C(Nc1cccc(C(F)(F)F)c1)Oc1ccc(F)cc1Cl
0.979
CCOC(=O)CCc1cc(N=Cc2cc(Br)ccc2O)c(O)c(N=Cc2cc(Br)ccc2O)c1
0.961
CSc1c(C#N)c(-c2ccc(Cl)cc2)nn1C(=O)c1ccccc1Cl
0.956
O=C(Nc1ccccn1)c1cc(-c2ccccc2)c(C(F)(F)F)s1
0.935

Measured normalized growth, Cc1cc(C(=O)O/N=C(/N)c2ccc([N+](=O)[O-])o2)no1 : 0.965

* * *

PROTOCOL TEXT: chemical genetic growth profiling, strain panel (AID 1159580)
TEST PARAMETERS: S. cerevisiae deletion strains, growth OD, locus YHR200W, strain rpn10
The whole screen tested about 5,500 compounds, of which about 2,000 (36%) were called active. Inconclusive results (about 18%) are left out. Rule as the data show it: active = normalized growth mostly below about 0.91 (no sharp cut-off); inconclusive = no clear call, values can overlap the other calls; inactive = mostly above about 0.92. Some of the results follow.
Pick one and only one: true for active, false for inactive

Here's what some known entries look like.
OC/C=C/c1ccc(O)c(O)c1
false
Nc1nc(N)c2nc(CNc3ccc(C(=O)NC(CCC(=O)O)C(=O)O)cc3)cnc2n1 (configuration not stated)
false
O=C(O)c1cc(=O)c(O)c2c(O)c(O)ccc2c1
false

Turning to the following compound.
Challenge: Which result was noted for this compound in the test: CCOP(=S)(OCC)SCSCC
Response given: false

* * *

PROTOCOL TEXT: chemical genetic growth profiling, strain panel (AID 1159580)
TEST PARAMETERS: S. cerevisiae deletion strains, growth OD, locus YJL129C, strain trk1
The campaign covered roughly 5,500 compounds. About 2,000 (36%) were called active. Not shown: some 18% with an inconclusive outcome. Cut-off read from the data, not from the text of the source: active = normalized growth mostly below about 0.91 (no sharp cut-off); inconclusive = no clear call, values can overlap the other calls; inactive = mostly above about 0.92. The list shows a part of the results.
Pick from true (1) (active), false (0) (inactive) when you respond.

CC[C@@H]1[C@@H](O)N2C3C[C@H]1C1C(O)[C@]4(C[C@@H]12)c1ccccc1N(C)[C@@H]34 (some centres not stated)
false (0)
O=C(O)c1ccc2c(c1)OCO2
false (0)
C=CCc1cc(OC)c2c(c1OC)OCO2
false (0)
CC(=O)OCC(=O)[C@@]12OC(C)(C)O[C@@H]1CC1C3C[C@H](F)C4=CC(=O)C=C[C@]4(C)[C@@]3(F)[C@@H](O)C[C@@]12C (some centres not stated)
false (0)

Challenge: Which outcome was entered for the compound COS(C)(=O)=O in this test?
Response given: false (0)

Challenge: Could you kindly confirm the outcome this assay logged for CCCc1cc(OC)c2c(c1)OCO2 ?
Response given: false (0)

* * *

PROTOCOL TEXT: chemical genetic growth profiling, strain panel (AID 1159580)
TEST PARAMETERS: S. cerevisiae deletion strains, growth OD, locus YHR030C, strain SLT2, stronger effect = lower value
In all, about 5,500 compounds went through this assay and about 2,000 (36%) were called active. Not shown: some 18% with an inconclusive outcome. The list shows a part of the results.
Simple rule here: normalized growth less than 1 is Condition met, otherwise Condition not met.

Observe how each entry below is paired with its result.
O=C(O)c1cc(=O)c(O)c2c(O)c(O)c(O)cc2c1
Condition met
CCCC1c2ccsc2CCN1C(=S)Nc1ccc(Cl)cc1Cl (stereo unspecified)
Condition met
CC12CCC3C(CC=C4CC(O)CCC43C)C1CCC2=O (stereo unspecified)
Condition not met
O=C(O)c1cc(O)c(O)c(O)c1
Condition met
CC(=O)O[C@H]1CC[C@@]2(C)C(=CCC3C2CC[C@]2(C)C(=O)CCC32)C1 (stereo partly specified)
Condition met

Challenge: Strictly below 1 in normalized growth? CC12CC[C@@H](O)CC1=CC[C@@H]1C2CCC2(C)C(=O)CC[C@@H]12 (stereo partly specified)
Response given: Condition met

Challenge: Decide: normalized growth of O=C(O)CC(CC(=O)O)c1ccc(C(F)(F)F)cc1 strictly below 1?
Response given: Condition not met

* * *

PROTOCOL TEXT: chemical genetic growth profiling, strain panel (AID 1159580);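 further: tested at 20 µM; growth read once vehicle control cultures reached saturation at 30 °C; 1 = growth at the plate median or of vehicle wells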
TEST PARAMETERS: S. cerevisiae deletion strains, growth OD, locus YHR079C, strain IRE1, stronger effect = lower value
The campaign covered roughly 5,500 compounds. About 2,000 (36%) were called active. Not shown: some 18% with an inconclusive outcome. The list shows a part of the results.
Entries and their normalized growth values follow.
Format: numeric value only, no unit, no commentary.

Just so you know, measured normalized growth for S=c1[nH]c2ccccc2s1 came out at 0.78

Value of measured normalized growth for the entry COc1ccc(CN(CCN(C)C)c2ncccn2)cc1 : 1

Query CC1(C)O[C@@H]2CC3C4CCC5=CC(=O)C=C[C@]5(C)C4[C@@H](O)C[C@]3(C)[C@]2(C(=O)CO)O1 (some centres not stated) yields normalized growth of 0.974

For reference, reported normalized growth for OC(c1ccc(C(F)(F)F)cc1)c1cccc(C(F)(F)F)c1 (configuration not stated) stands at 0.885

Memo: CN1CCc2cccc3c2C1Cc1ccc(O)c(O)c1-3 (configuration not stated) , reported normalized growth: 1.05

The measured normalized growth associated with CC/C=C\C/C=C\C/C=C\C/C=C\C/C=C\CCCC(=O)OCC reads 0.924

Lab note: measured normalized growth of CN1CC(=O)N2[C@H](c3ccc4c(c3)OCO4)c3[nH]c4ccccc4c3C[C@@H]2C1=O was 0.947

Entry under test: CCc1cc2c(cc1-c1csc(C/C(N)=N\O)n1)C(C)(C)CCC2(C)C . Its normalized growth was 0.525

# normalized growth of COc1ccc(/C=C/c2cc(O)cc(O)c2)cc1 = 1.01

Briefly, normalized growth measured for O=C(O)CCCO : 1.05

Record summary for CC(C)(O)C#Cc1ccc(/C=N\Nc2ccccc2)cc1 : reported normalized growth = 0.585

Reported normalized growth of C=C[C@@]1(C)CC(=O)[C@@]2(O)[C@](C)(O1)[C@@H](O)[C@@H](O)C1C(C)(C)CC[C@H](O)[C@@]12C (some centres not stated) : 0.971

// recorded normalized growth for C/C(=N/OC(=O)Nc1ccc(Cl)cc1)c1ccc2c(c1)CCO2 : 0.775

* * *

PROTOCOL TEXT: chemical genetic growth profiling, strain panel (AID 1159580);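 further: tested at 20 µM; growth read once vehicle control cultures reached saturation at 30 °C; 1 = growth at the plate median or of vehicle wells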
TEST PARAMETERS: S. cerevisiae deletion strains, growth OD, locus YJR043C, strain POL32
Hit rate of the full screen: of about 5,500 compounds, about 2,000 (36%) were called active. Another 18% or so got no clear call; they are omitted. Rule as the data show it: active = normalized growth mostly below about 0.91 (no sharp cut-off); inconclusive = no clear call, values can overlap the other calls; inactive = mostly above about 0.92. Some of the results follow.
Parameter call: string, one of active, inactive

COc1ccccc1-c1cc(=O)c2c(OC)cccc2o1
inactive
O=C(O)CCCCC1SCC2NC(=O)NC21 (stereo not given)
inactive
CC1CC2C(C(O)CC3(C)C2CCC3(O)C(=O)COC(=O)CCC(=O)O)C2(C)C=CC(=O)C=C12 (stereo not given)
inactive
COc1ccccc1NC(=O)N1CCCN(C(=O)c2cccs2)CC1
inactive
O=C(O)CC(CC(=O)O)c1ccc(C(F)(F)F)cc1
inactive

Challenge: Recorded test call requested for COC(=O)c1ccc(S(=O)(=O)NCc2ccccc2)n1C
Response given: inactive

Challenge: Recorded call for CCOP(=S)(OCC)SCCSCC ?
Response given: inactive

Challenge: Check the results log: what was the call for COc1ccc(C[C@H](N)C(=O)N[C@@H]2[C@@H](CO)OC(n3cnc4c(N(C)C)ncnc43)[C@@H]2O)cc1 (stereo not given in full) ?
Response given: inactive

Challenge: Record request — test call for CC[C@@H]1[C@@H](O)N2C3C[C@H]1C1C(O)[C@]4(C[C@@H]12)c1ccccc1N(C)[C@@H]34 (stereo not given in full)
Response given: inactive

Challenge: In this assay, the call recorded for CN=C1CN(O)C(c2ccccc2)=c2cc(Cl)ccc2=N1 was what?
Response given: inactive

Challenge: Could you kindly confirm the outcome this assay logged for CCOC(N)=O ?
Response given: inactive

* * *

PROTOCOL TEXT: chemical genetic growth profiling, strain panel (AID 1159580);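 further: tested at 20 µM; growth read once vehicle control cultures reached saturation at 30 °C; 1 = growth at the plate median or of vehicle wells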
TEST PARAMETERS: S. cerevisiae deletion strains, growth OD, locus YPR111W, strain DBF20, stronger effect = lower value
The campaign covered roughly 5,500 compounds. About 2,000 (36%) were called active. Roughly 18% stayed inconclusive and do not appear here. The list shows a part of the results.
Here the recorded normalized growth is given for each entry.
No unit in the answer, only the number.

CSc1cccc(N2C(=O)CC(c3c(Cl)cccc3Cl)CC2=O)c1
0.977
O=C(Nc1cccc(C(F)(F)F)c1)Oc1ccc(F)cc1Cl
0.964
C/C(=N/OC(=O)Nc1ccc(Cl)cc1)c1ccc2c(c1)CCO2
0.96
CCCCCCCC1CCC/C1=N/OC(=O)c1cccs1 (stereo unspecified)
0.991
CCc1cc2c(cc1-c1csc(C/C(N)=N\O)n1)C(C)(C)CCC2(C)C
0.966
O=C(NCc1ccco1)c1csc(C2COc3ccccc3O2)n1 (stereo unspecified)
0.947
Cc1cc(C(=O)O/N=C(/N)c2ccc([N+](=O)[O-])o2)no1
0.896
CC(=O)C(Sc1nc2ccccc2s1)C(C)=O
0.946

normalized growth reported for this molecule CCOC(=O)NC(=S)NC12CC3CC(CC(C3)C1)C2 : 0.996

Noted for N#CC1=C(N)C(C#N)(C#N)C2(CCCCC2)C2CCCC=C12 (stereo unspecified) : its normalized growth reads 0.987

The molecule identified as CC12CC[C@@H](O)CC1=CC[C@@H]1C2CCC2(C)C(=O)CC[C@@H]12 (stereo partly specified) registered its normalized growth at 1
